Consider the following compounds; for each one, report its log10 of IC50.
- measurement target: Transient receptor potential cation channel subfamily V member 1 (Homo sapiens, UniProt Q8NER1)
- Sequence (Q8NER1 whole entry): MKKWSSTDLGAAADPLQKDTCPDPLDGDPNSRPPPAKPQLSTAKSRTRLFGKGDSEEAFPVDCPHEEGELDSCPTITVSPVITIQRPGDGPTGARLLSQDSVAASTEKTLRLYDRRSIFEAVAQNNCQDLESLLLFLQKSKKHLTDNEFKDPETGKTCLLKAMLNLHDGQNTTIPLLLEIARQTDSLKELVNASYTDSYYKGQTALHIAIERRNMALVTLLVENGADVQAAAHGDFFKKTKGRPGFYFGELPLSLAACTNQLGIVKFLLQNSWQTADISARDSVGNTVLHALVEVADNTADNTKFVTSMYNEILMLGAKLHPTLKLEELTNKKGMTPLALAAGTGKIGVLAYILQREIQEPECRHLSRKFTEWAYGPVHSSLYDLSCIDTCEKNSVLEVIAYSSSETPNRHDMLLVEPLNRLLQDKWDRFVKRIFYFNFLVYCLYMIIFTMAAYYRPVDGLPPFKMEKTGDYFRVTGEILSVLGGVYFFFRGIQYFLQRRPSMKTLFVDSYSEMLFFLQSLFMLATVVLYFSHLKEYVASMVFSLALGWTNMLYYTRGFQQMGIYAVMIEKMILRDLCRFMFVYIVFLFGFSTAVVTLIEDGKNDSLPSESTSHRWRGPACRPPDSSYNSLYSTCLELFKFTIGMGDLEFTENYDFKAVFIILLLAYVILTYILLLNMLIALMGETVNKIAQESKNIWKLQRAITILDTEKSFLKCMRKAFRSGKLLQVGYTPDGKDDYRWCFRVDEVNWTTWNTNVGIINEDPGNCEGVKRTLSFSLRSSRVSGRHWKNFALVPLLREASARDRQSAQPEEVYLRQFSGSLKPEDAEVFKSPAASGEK
- assay comment: Ca2+ Influx Functional Assay for the Determination of in Vitro Activity.
- study conditions: pH 7.4; 22 °C; read-out: EC50 (the source's name)
# log10 transformed; quantity=IC50; unit=nM

[in] Which log10 of IC50 is listed for CC(NC(=O)Nc1cccc2cnccc12)c1ccc(Br)cc1 (configuration not stated) ?
[out] 1.41

[in] Same question for `C[C@@H](NC(=O)Nc1cccc2[nH]ncc12)c1ccc2ccccc2c1` please.
[out] 2.09

[in] Same question for Cc1cc(C(C)(C)C)ccc1C(C)NC(=O)Nc1cccc2cnccc12 (configuration not stated) please.
[out] 1.66

[in] Same question for `C[C@@H](NC(=O)Nc1cccc2[nH]ncc12)c1ccc(C(F)(F)F)cc1` please.
[out] 1.61

[in] Same question for `O=C(Nc1cccc2cnccc12)NC(c1ccccc1)c1ccccc1` please.
[out] 2.78

[in] Same question for `Cc1ccc([C@H](C)NC(=O)Nc2cccc3[nH]ncc23)cc1` please.
[out] 2.87

[in] Same question for CC(NC(=O)Nc1cccc2cnccc12)c1ccc(C(F)(F)F)cc1 (configuration not stated) please.
[out] 1.34

[in] Same question for CC(NC(=O)Nc1cccc2cnccc12)c1ccc(C(C)(C)C)cc1C(C)(C)C (configuration not stated) please.
[out] 1.23

[in] Same question for CN(C)CC(NC(=O)Nc1cccc2cnccc12)c1ccccc1 (configuration not stated) please.
[out] 4.49

[in] Same question for `CC(C)(NC(=O)Nc1cccc2cnccc12)c1ccc(C(F)(F)F)cc1` please.
[out] 1.97

[in] Same question for CC(C)(C)c1ccc(C(NC(=O)Nc2cccc3cnccc23)c2ccccc2)cc1 (configuration not stated) please.
[out] 2.10

[in] Same question for `CC(C)(NC(=O)Nc1cccc2cnccc12)c1ccc(Cl)cc1` please.
[out] 2.16

[in] Same question for `C[C@H](NC(=O)Nc1cccc2[nH]ncc12)c1ccc2ccccc2c1` please.
[out] 3.57

[in] Same question for CC(NC(=O)Nc1cccc2cnccc12)c1ccc(C(F)(F)F)c(F)c1 (configuration not stated) please.
[out] 1.28

[in] Same question for CC(NC(=O)Nc1cccc2cnccc12)c1ccc(C(C)(C)C)cc1 (configuration not stated) please.
[out] 1.38

[in] Same question for O=C(Nc1cccc2cnccc12)NC(c1ccc(C(F)(F)F)cc1)C1CCCCC1 (configuration not stated) please.
[out] 2.46

[in] Same question for CCc1cc(C(C)(C)C)ccc1C(C)NC(=O)Nc1cccc2cnccc12 (configuration not stated) please.
[out] 1.30

[in] Same question for O=C(Nc1cccc2cnccc12)NC(c1ccccc1)c1ccc(N2CCCCC2)cc1 (configuration not stated) please.
[out] 2.23

[in] Same question for CCC(NC(=O)Nc1cccc2cnccc12)c1ccccc1 (configuration not stated) please.
[out] 3.41

[in] Same question for `C[C@H](NC(=O)Nc1cccc2[nH]ncc12)c1ccc(C(F)(F)F)cc1` please.
[out] 2.39

[in] Same question for N#CCC(NC(=O)Nc1cccc2cnccc12)c1ccccc1 (configuration not stated) please.
[out] 4.20

[in] Same question for CCC(NC(=O)Nc1cccc2cnccc12)c1ccc(C(F)(F)F)c(F)c1 (configuration not stated) please.
[out] 2.04

[in] Same question for O=C(Nc1cccc2cnccc12)NC(c1ccc(C(F)(F)F)cc1)C1CCCC1 (configuration not stated) please.
[out] 2.68

[in] Same question for CC(NC(=O)Nc1cccc2[nH]ncc12)c1ccc(C(F)(F)F)cc1 (racemic) please.
[out] 1.67

[in] Same question for `Cc1ccc([C@@H](C)NC(=O)Nc2cccc3[nH]ncc23)cc1` please.
[out] 1.86

[in] Same question for O=C(Nc1cccc2cnccc12)NC(c1ccc(C(F)(F)F)cc1)C1CC1 (configuration not stated) please.
[out] 2.17

[in] Same question for O=C(Nc1cccc2cnccc12)NC(c1ccccc1)c1ccc(C(F)(F)F)cc1 (configuration not stated) please.
[out] 2.17
